Biological target: human S1P1 receptor (Homo sapiens)
Construct: membranes
Assay: S1P1 GTPγS assay
Conditions: agonist activity, [35S]-GTPγS binding, human S1P1 rat hepatoma membranes
Description: For membrane preparations all steps were performed at 4° C. […] After 30 minutes pre-coupling on ice the bead and membrane suspension was dispensed into a white Greiner polypropylene LV384-well plate ([…]), containing 0.1 μl of the compound. […] The final assay cocktail (10.1 μl) was then centrifuged at 1000 rpm for 5 minutes then read immediately on a Viewlux reader. […]
pEC50: −log10 of the molar value. Where a name gives a salt, the structure may show the parent alone.

compound: CC(C)Oc1ccc(-c2nc(-c3ccc4c(c3)CCNCC4)no2)cc1C(F)(F)F [Example 19, hydrochloride]
subject.of.test: human S1P1 receptor (Homo sapiens)
pEC50: > 7.00
--
compound: CC(C)Oc1ncc(-c2nc(-c3ccc4c(c3)CCN(CCCC(=O)O)CC4)no2)cc1Cl [Example 50]
subject.of.test: human S1P1 receptor (Homo sapiens)
pEC50: > 7.00
--
compound: CC(C)Oc1ccc(-c2nc(-c3ccc4c(c3)CCNCC4)no2)cc1C#N [Example 18, hydrochloride]
subject.of.test: human S1P1 receptor (Homo sapiens)
pEC50: > 7.00
--
compound: CC(C)Oc1ccc(-c2nc(-c3ccc4c(c3)CCN(CCCC(=O)O)CC4)no2)cc1C#N [Example 27, hydrochloride]
subject.of.test: human S1P1 receptor (Homo sapiens)
pEC50: ≥ 8.00
--
compound: CC(C)Oc1ccc(-c2nc(-c3ccc4c(c3)CN(CCC(=O)O)CCO4)no2)cc1C#N [Example 37]
subject.of.test: human S1P1 receptor (Homo sapiens)
pEC50: > 7.00
--
compound: CC(C)Oc1ncc(-c2nc(-c3ccc4c(c3)CCNCC4)no2)cc1C#N [Example 48, formate]
subject.of.test: human S1P1 receptor (Homo sapiens)
pEC50: > 7.00
--
compound: CC(C)Oc1ccc(-c2nc(-c3ccc4c(c3)CCN(CC(=O)O)CC4)no2)cc1C#N [Example 23]
subject.of.test: human S1P1 receptor (Homo sapiens)
pEC50: ≥ 8.00
--
compound: CC(C)Oc1ccc(-c2nc(-c3cccc4c3OCCN(CCCC(=O)O)C4)no2)cc1C#N [Example 34]
subject.of.test: human S1P1 receptor (Homo sapiens)
pEC50: > 7.00
--
compound: CC(C)Oc1ccc(-c2nc(-c3cccc4c3OCCNC4)no2)cc1C#N [Example 32, hydrochloride]
subject.of.test: human S1P1 receptor (Homo sapiens)
pEC50: > 7.00
--
compound: CC(C)Oc1ccc(-c2nc(-c3ccc4c(c3)CCN(CCCC(=O)O)CC4)no2)cc1Cl [Example 26]
subject.of.test: human S1P1 receptor (Homo sapiens)
pEC50: ≥ 8.00
--
compound: CC(C)Oc1ccc(-c2nc(-c3cccc4c3CCNCC4)no2)cc1Cl [Example 8, hydrochloride]
subject.of.test: human S1P1 receptor (Homo sapiens)
pEC50: > 7.00
--
compound: O=C(O)CN1CCc2ccc(-c3noc(-c4ccc(-c5ccccc5)c(C(F)(F)F)c4)n3)cc2CC1 [Example 25]
subject.of.test: human S1P1 receptor (Homo sapiens)
pEC50: > 7.00

---

Biological target: human S1P1 receptor (Homo sapiens, UniProt P21453)
Construct: membranes
Sequence (P21453 whole entry): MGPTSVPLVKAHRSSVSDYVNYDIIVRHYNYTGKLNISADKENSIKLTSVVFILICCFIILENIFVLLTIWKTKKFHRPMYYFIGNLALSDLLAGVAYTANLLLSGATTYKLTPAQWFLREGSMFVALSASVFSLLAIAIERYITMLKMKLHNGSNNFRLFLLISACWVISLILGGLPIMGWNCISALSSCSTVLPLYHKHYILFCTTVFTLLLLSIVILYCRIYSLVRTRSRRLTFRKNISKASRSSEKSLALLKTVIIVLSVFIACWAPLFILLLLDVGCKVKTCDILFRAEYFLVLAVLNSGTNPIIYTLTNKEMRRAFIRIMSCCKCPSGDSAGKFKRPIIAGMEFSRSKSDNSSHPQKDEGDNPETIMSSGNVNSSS
Assay: S1P1 GTPγS assay
Details: agonist activity, [35S]-GTPγS binding, human S1P1 rat hepatoma membranes
Structures can show the parent of a compound that is named as a salt.
A collection of molecules and their measured EC50

molecule: CC(C)Oc1ccc(-c2nc(-c3ccc4c(c3)CCN(CC(=O)O)CC4)no2)cc1C(F)(F)F
EC50: ≤ 10 nM
//
molecule: CC(C)Oc1ccc(-c2nc(-c3cccc4c3CCNCC4)no2)cc1C#N [Example 7, hydrochloride]
EC50: ≤ 10 nM
//
molecule: CC(C)Oc1ccc(-c2nc(-c3ccc4c(c3)CCCN(CCC(=O)O)C4)no2)cc1C#N [Example 6, hydrochloride]
EC50: < 100 nM
//
molecule: CC(C)Oc1ccc(-c2nc(-c3ccc4c(c3)CCN(CCCC(=O)O)CC4)no2)cc1C(F)(F)F [Example 28, hydrochloride]
EC50: ≤ 10 nM
//
molecule: CC(C)Oc1ccc(-c2nc(-c3cccc4c3OCCNC4)no2)cc1Cl [Example 31, hydrochloride]
EC50: < 100 nM
//
molecule: CC(C)Oc1ccc(-c2nc(-c3ccc4c(c3)CNCCO4)no2)cc1C#N [Example 35, hydrochloride]
EC50: < 100 nM
//
molecule: CC(C)Oc1ccc(-c2nc(-c3cccc4c3OCCN(CCCCC(=O)O)C4)no2)cc1C#N
EC50: < 100 nM

All values here come from patent US20100174065A1.
